Just for reference, ChEMBL document CHEMBL1130000 is where these values come from.

// Selectivity lookup, one value per entry
Test system: Nucleic Acid
experimental details: Compound tested for its selectivity for incorporation into poly(dA) DNA base pairs
Type: functional
reported property: Selectivity

[
  {
    "compound": "CC(=O)N[C@H]1CCn2c1nc1c2C(=O)C(C)=C(N2CC2)C1=O",
    "reported property": "Selectivity",
    "measured": "32.7%"
  },
  {
    "compound": "CC(=O)O[C@H]1CCn2c1nc1c2C(=O)C(C)=C(N2CC2)C1=O (stereo in doubt; (-))",
    "reported property": "Selectivity",
    "measured": "8.5%"
  },
  {
    "compound": "CC(=O)O[C@H]1CCn2c1nc1c2C(=O)C(C)=C(N2CC2)C1=O (stereo in doubt; (+))",
    "reported property": "Selectivity",
    "measured": "5.9%"
  },
  {
    "compound": "CC(=O)NC1CCn2c1nc1c2C(=O)C(C)=C(N2CC2)C1=O (racemic)",
    "reported property": "Selectivity",
    "measured": "41.5%"
  }
]
